experiment: self-splicing fitness, log relative to wild type (ln ratio); higher = more splicing; Tetrahymena group I intron in knt gene, E. coli kanamycin selection, DiMSum; sequences stand for … in CUCUCU…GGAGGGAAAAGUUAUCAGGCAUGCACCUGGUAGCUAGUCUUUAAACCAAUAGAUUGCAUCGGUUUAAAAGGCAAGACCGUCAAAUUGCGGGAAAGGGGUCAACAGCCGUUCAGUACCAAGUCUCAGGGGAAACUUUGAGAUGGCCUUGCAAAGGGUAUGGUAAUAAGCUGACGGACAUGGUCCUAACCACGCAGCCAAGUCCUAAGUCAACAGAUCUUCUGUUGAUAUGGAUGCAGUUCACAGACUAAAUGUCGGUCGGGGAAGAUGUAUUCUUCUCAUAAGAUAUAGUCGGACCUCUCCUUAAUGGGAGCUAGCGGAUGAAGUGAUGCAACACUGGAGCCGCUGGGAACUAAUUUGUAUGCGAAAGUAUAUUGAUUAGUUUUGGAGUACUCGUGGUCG;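 note: selection with 25 µg/mL kanamycin versus none on LB agar overnight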
condition.info: 30 °C
We use -3 as the dividing line for self-splicing fitness (ln): on or above the line is 1, below is -1.

Q) Check the entry `CGAAAGCAAUAUUACGUCUC` : does self-splicing fitness (ln) equal or exceed -3?
A) 1

Q) Likewise for `GUGCAGCAAUAUUACGGCCU` ?
A) 1

Q) Likewise for `AUCCAGCAAUAUUACGGUGA` ?
A) 1

Q) Likewise for `ACGGAGCAAUAUUACGAUGC` ?
A) -1

Q) Likewise for `AUAGAGCAAUAUUACGGCCC` ?
A) 1

Q) Likewise for `CACUAGCAAUAUUACGCCUG` ?
A) 1

Q) Likewise for `UUCAAGCAAUAUUACGAAAU` ?
A) -1

Q) Likewise for `GACGAGCAAUAUUACGUAUU` ?
A) -1

Q) Likewise for `UCUAAGCAAUAUUACGAGCC` ?
A) 1

Q) Likewise for `GCCUAGCAAUAUUACGCCAG` ?
A) 1

Q) Likewise for `GGGUAGCAAUAUUACGUACG` ?
A) 1

Q) Likewise for `CCACAGCAAUAUUACGUAUA` ?
A) -1

Q) Likewise for `GUCCAGCAAUAUUACGGAGG` ?
A) 1

Q) Likewise for `UGCUAGCAAUAUUACGACAC` ?
A) -1

Q) Likewise for `UUACAGCAAUAUUACGUAUG` ?
A) 1

Q) Likewise for `UGGCAGCAAUAUUACGGCAU` ?
A) 1

Q) Likewise for `UCUCAGCAAUAUUACGCAAU` ?
A) 1

Q) Likewise for `AGAAAGCAAUAUUACGUUAC` ?
A) -1

Q) Likewise for `CAAGAGCAAUAUUACGAAUA` ?
A) 1

Q) Likewise for `UUGGAGCAAUAUUACGGUCG` ?
A) 1

Q) Likewise for `CCUUAGCAAUAUUACGCCGG` ?
A) -1

Q) Likewise for `CAUAAGCAAUAUUACGGCGA` ?
A) 1

Q) Likewise for `AUUGAGCAAUAUUACGGUCA` ?
A) 1

Q) Likewise for `AAACAGCAAUAUUACGUCUG` ?
A) 1

Q) Likewise for `GAUUAGCAAUAUUACGCGAC` ?
A) -1

Q) Likewise for `AGCUAGCAAUAUUACGCCAU` ?
A) 1

Q) Likewise for `CCUGAGCAAUAUUACGGAAG` ?
A) 1

Q) Likewise for `GCUAAGCAAUAUUACGUUUG` ?
A) 1

Q) Likewise for `GAACAGCAAUAUUACGGAAG` ?
A) -1

Q) Likewise for `CUUGAGCAAUAUUACGGGUA` ?
A) -1

Q) Likewise for `CUCGAGCAAUAUUACGGGGC` ?
A) -1

Q) Likewise for `AGUGAGCAAUAUUACGAUCA` ?
A) 1

Q) Likewise for `UUGAAGCAAUAUUACGCUCU` ?
A) 1

Q) Likewise for `CGUGAGCAAUAUUACGGUCA` ?
A) -1

Q) Likewise for `GACUAGCAAUAUUACGGUGG` ?
A) 1

Q) Likewise for `UCGGAGCAAUAUUACGUAGG` ?
A) 1

Q) Likewise for `CCAGAGCAAUAUUACGCCCU` ?
A) 1

Q) Likewise for `AGCCAGCAAUAUUACGGUGG` ?
A) -1

Q) Likewise for `CGGUAGCAAUAUUACGUAAC` ?
A) -1

Q) Likewise for `UACCAGCAAUAUUACGCAAC` ?
A) 1

Q) Likewise for `ACGUAGCAAUAUUACGCAAC` ?
A) 1

Q) Likewise for `ACCCAGCAAUAUUACGAGCG` ?
A) 1

Q) Likewise for `AGACAGCAAUAUUACGUUAA` ?
A) -1

Q) Likewise for `CCUCAGCAAUAUUACGCGGC` ?
A) -1

Q) Likewise for `CUACAGCAAUAUUACGGCUG` ?
A) -1

Q) Likewise for `GUAUAGCAAUAUUACGGUUG` ?
A) -1

Q) Likewise for `GGCAAGCAAUAUUACGGCAU` ?
A) 1

Q) Likewise for `GACCAGCAAUAUUACGGAGG` ?
A) 1

Q) Likewise for `CGCGAGCAAUAUUACGUUGG` ?
A) -1

Q) Likewise for `AAAAAGCAAUAUUACGAAGG` ?
A) -1

Q) Likewise for `ACGGAGCAAUAUUACGGUGU` ?
A) -1

Q) Likewise for `CAUCAGCAAUAUUACGGGCG` ?
A) 1

Q) Likewise for `GACGAGCAAUAUUACGGCUC` ?
A) 1

Q) Likewise for `UUCUAGCAAUAUUACGACCG` ?
A) 1

Q) Likewise for `GUGCAGCAAUAUUACGCGGC` ?
A) 1

Q) Likewise for `CCGGAGCAAUAUUACGCCUU` ?
A) 1

Q) Likewise for `ACCCAGCAAUAUUACGAUUA` ?
A) 1

Q) Likewise for `AAGGAGCAAUAUUACGUCCC` ?
A) 1

Q) Likewise for `CUAUAGCAAUAUUACGUAUC` ?
A) -1

Q) Likewise for `GUCCAGCAAUAUUACGCCAA` ?
A) 1

----------
experiment: self-splicing fitness, log relative to wild type (ln ratio); higher = more splicing; Tetrahymena group I intron in knt gene, E. coli kanamycin selection, DiMSum; sequences stand for … in CUCUCU…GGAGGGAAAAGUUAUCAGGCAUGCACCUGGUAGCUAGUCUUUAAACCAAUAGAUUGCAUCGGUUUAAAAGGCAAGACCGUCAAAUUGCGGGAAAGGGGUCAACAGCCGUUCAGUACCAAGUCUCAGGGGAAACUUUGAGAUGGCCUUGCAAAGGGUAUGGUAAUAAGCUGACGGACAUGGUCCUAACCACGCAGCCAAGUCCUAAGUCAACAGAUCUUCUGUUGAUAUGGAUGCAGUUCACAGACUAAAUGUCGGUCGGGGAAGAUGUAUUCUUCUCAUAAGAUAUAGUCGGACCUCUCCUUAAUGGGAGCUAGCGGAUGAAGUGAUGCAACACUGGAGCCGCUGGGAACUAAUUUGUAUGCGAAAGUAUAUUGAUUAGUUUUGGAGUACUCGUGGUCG
condition.info: 30 °C
Give self-splicing fitness (ln) for every item shown.

Q) Given `AGAUAGCAAUAUUACGUUAU` , state its recorded self-splicing fitness (ln).
A) -3.23

Q) Likewise for `AAUAAGCAAUAUUACGAGUA` ?
A) -1.67

Q) Likewise for `AGGGAGCAAUAUUACGGCAA` ?
A) -3.52

Q) Likewise for `UAGAAGCAAUAUUACGGCGC` ?
A) -1.94

Q) Likewise for `UGUUAGCAAUAUUACGCUUA` ?
A) -1.73

Q) Likewise for `GAUAAGCAAUAUUACGUGAG` ?
A) -2.14

Q) Likewise for `GUGAAGCAAUAUUACGCCGA` ?
A) -0.95

Q) Likewise for `CGCAAGCAAUAUUACGAGUA` ?
A) -2.53

Q) Likewise for `GGCGAGCAAUAUUACGGUGG` ?
A) -3.31

Q) Likewise for `CCUCAGCAAUAUUACGGAAA` ?
A) -3.7

Q) Likewise for `GACAAGCAAUAUUACGUGUG` ?
A) -2.78

Q) Likewise for `ACCCAGCAAUAUUACGUGAA` ?
A) -0.191

Q) Likewise for `CUGAAGCAAUAUUACGCGAA` ?
A) -3.12

Q) Likewise for `AGCAAGCAAUAUUACGGCAA` ?
A) -0.272

Q) Likewise for `CCUUAGCAAUAUUACGACCA` ?
A) -2.66

Q) Likewise for `UGAAAGCAAUAUUACGGUCU` ?
A) -0.0503

----------
experiment: self-splicing fitness, log relative to wild type (ln ratio); higher = more splicing; Tetrahymena group I intron in knt gene, E. coli kanamycin selection, DiMSum; sequences stand for … in CUCUCU…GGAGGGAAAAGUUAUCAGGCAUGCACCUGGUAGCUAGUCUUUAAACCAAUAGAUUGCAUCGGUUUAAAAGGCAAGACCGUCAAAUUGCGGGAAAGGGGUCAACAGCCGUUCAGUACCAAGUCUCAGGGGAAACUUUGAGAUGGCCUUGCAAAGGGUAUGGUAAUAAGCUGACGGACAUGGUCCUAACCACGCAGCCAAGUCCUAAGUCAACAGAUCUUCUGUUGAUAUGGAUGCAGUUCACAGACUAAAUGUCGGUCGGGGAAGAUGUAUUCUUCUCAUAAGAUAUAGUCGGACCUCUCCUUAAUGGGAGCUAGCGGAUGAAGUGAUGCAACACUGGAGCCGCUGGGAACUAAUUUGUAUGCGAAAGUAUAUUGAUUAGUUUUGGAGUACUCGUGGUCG
condition.info: 37 °C
We use -2 as the dividing line for self-splicing fitness (ln): on or above the line is true (1), below is false (0).

Q) Check the entry `CGGGAGCAAUAUUACGAGAU` : does self-splicing fitness (ln) equal or exceed -2?
A) false (0)

Q) Likewise for `CCGCAGCAAUAUUACGUAAU` ?
A) false (0)

Q) Likewise for `GCAUAGCAAUAUUACGAUAU` ?
A) true (1)

Q) Likewise for `UUUAAGCAAUAUUACGUUGC` ?
A) false (0)

Q) Likewise for `AGUUAGCAAUAUUACGAUAC` ?
A) true (1)

Q) Likewise for `UCGGAGCAAUAUUACGGAAA` ?
A) false (0)

Q) Likewise for `GUGCAGCAAUAUUACGUGGU` ?
A) true (1)
